# maps each entry to its microsomal CLint at 1 µM
assay: Metabolic stability test: liver microsomal stability assay; assay type: in vitro ADME, mouse; conditions: male, pH 7.4; mouse liver microsomes 0.5 mg protein/mL, compound 1 µM, presence of NADPH; read-out: Mouse Hepatic Microsome CLh,int NADPH(+)
Positions of bridges follow the written chain, without caps; N, C: chain ends. Non-standard residues stand in square brackets, D forms with d. Residues, ends and D or L forms follow the SMILES beside them. *: point of attachment. NMeF = CN[C@@H](Cc1ccccc1)C(=O)O; NMeI = CC[C@H](C)[C@H](NC)C(=O)O; NMeT = CN[C@H](C(=O)O)[C@@H](C)O; hPhe = N[C@@H](CCc1ccccc1)C(=O)O; NMeL = CN[C@@H](CC(C)C)C(=O)O; NMeV = CN[C@H](C(=O)O)C(C)C; NMeAbu = CC[C@H](NC)C(=O)O; NMeA = CN[C@@H](C)C(=O)O; Piperidide = C1CCN(*)CC1; NBuGly = CCCCNCC(=O)O; tBu = CC(C)(C)*
Reply with just the number (in µL/min/mg).

CC[C@H](C)[C@H]1C(=O)N(C)[C@@H]([C@@H](C)O)C(=O)N(C)[C@@H](CC)C(=O)N(C)[C@@H](CC(C)C)C(=O)N2CCC[C@H]2C(=O)N[C@H](C(=O)N2CCCCC2)CC(=O)N(C)[C@@H](C)C(=O)N[C@@H](CC(C)C)C(=O)N(C)[C@@H](CC(C)C)C(=O)N(C)[C@@H](C)C(=O)N2CCC[C@H]2C(=O)N[C@@H](CCc2ccccc2)C(=O)N(C)[C@@H](CC(C)C)C(=O)N1C [pd125] ([NMeA]L[NMeL][NMeA]P[hPhe][NMeL][NMeI][NMeT][NMeAbu][NMeL]PD-Piperidide; lactam N-13)	16.7

Shift focus to the following entry.
microsomal CLint at 1 µM for CCCCN1CC(=O)N[C@@H](COC(C)(C)C)C(=O)N(C)[C@@H](Cc2ccccc2)C(=O)N[C@@H](CC(C)C)C(=O)N(C)[C@@H](C(C)C)C(=O)N[C@H](C(=O)N2CCCCC2)CC(=O)N[C@H](C(C)C)C(=O)N(C)[C@@H](Cc2ccccc2)C(=O)N[C@@H](CC(C)C)C(=O)N(C)[C@@H](C(C)C)C(=O)N(C)[C@@H](CC(C)C)C(=O)N[C@@H]([C@@H](C)O)C(=O)N(C)[C@@H](CC(C)C)C1=O [pd100] ([dV][NMeF]L[NMeV][NMeL]T[NMeL][NBuGly]S(tBu)[NMeF]L[NMeV]D-Piperidide; lactam N-13) ?
39.6

---

tested on: Caco-2 cells; experiment: Membrane permeability test using Caco-2 cells with preincubation; assay type: in vitro ADME; settings: Caco-2 cells, preincubation 20 to 24 hours; apical FaSSIF/HBSS 1% DMSO pH 6.0, basal HBSS 4% BSA pH 7.4; basal sample at 180 minutes
Starred links: 1 amine or outer side, 2 acyl side, 3 side chain; linkers in the order of their positions; H or OH if unused. Positions of bridges follow the written chain, without caps; N, C: chain ends. Non-standard residues stand in square brackets, D forms with d. Residues, ends and D or L forms follow the SMILES beside them. *: point of attachment. NMeF = CN[C@@H](Cc1ccccc1)C(=O)O; NMeT = CN[C@H](C(=O)O)[C@@H](C)O; hPhe = N[C@@H](CCc1ccccc1)C(=O)O; NMeβAla = CN(CCC(=O)[*:2])[*:1]; NMeD = CN[C@@H](CC(=O)O)C(=O)O; NMeL = CN[C@@H](CC(C)C)C(=O)O; dNMeV = CN[C@@H](C(=O)O)C(C)C; NMeV = CN[C@H](C(=O)O)C(C)C; d(β3hA) = C[C@@H](N)CC(=O)O; NMeAbu = CC[C@H](NC)C(=O)O; NMeA = CN[C@@H](C)C(=O)O; Piperidide = C1CCN(*)CC1; Abu = CC[C@H](N)C(=O)O; Sar = CNCC(=O)O; tBu = CC(C)(C)*
Caco2 Papp (10^-6 cm/sec) values by entry

Look over these answered cases.
CC(C)C[C@@H]1NC(=O)[C@H](CC(C)C)N(C)C(=O)[C@H](C(C)C)N(C)C(=O)[C@H](CCc2ccccc2)NC(=O)[C@H]([C@@H](C)O)N(C)C(=O)[C@@H](C(C)C)NC(=O)C[C@@H](C(=O)N2CCCCC2)NC(=O)[C@H](C(C)C)N(C)C(=O)[C@H](CC(C)C)NC(=O)[C@H](Cc2ccccc2)N(C)C(=O)[C@@H]2CCCN2C(=O)[C@H](C(C)C)NC(=O)[C@H](CC(C)C)N(C)C(=O)CN(C)C1=O [pd032] ([dV][NMeT][hPhe][NMeV][NMeL]L[Sar][NMeL]VP[NMeF]L[NMeV]D-Piperidide; lactam N-14)	0.72 10^-6 cm/sec
CC(C)C[C@@H]1NC(=O)[C@H](C(C)C)N(C)C(=O)[C@H](Cc2ccccc2)N(C)C(=O)[C@H](COC(C)(C)C)NC(=O)[C@H](CC(C)C)N(C)C(=O)[C@H](C)N(C)C(=O)[C@H]([C@@H](C)O)NC(=O)[C@H](CC(C)C)N(C)C(=O)[C@H](C(C)C)N(C)C(=O)[C@H](CCc2ccccc2)NC(=O)[C@H](CC(C)C)N(C)C(=O)[C@@H](C(C)C)N(C)C(=O)C[C@@H](C(=O)N2CCCCC2)N(C)C1=O [pd161] ([dNMeV][NMeL][hPhe][NMeV][NMeL]T[NMeA][NMeL]S(tBu)[NMeF][NMeV]L[NMeD]-Piperidide; lactam N-13)	0.09 10^-6 cm/sec
CC[C@@H]1NC(=O)[C@H](Cc2ccccc2)N(C)C(=O)[C@H]([C@@H](C)CC)NC(=O)[C@H](CC(C)C)N(C)C(=O)[C@H](CC(C)C)NC(=O)CCN(C)C(=O)C[C@@H](C(=O)N2CCCCC2)NC(=O)[C@H](C(C)C)NC(=O)[C@H](CC(C)C)N(C)C(=O)[C@H](C)N(C)C(=O)[C@H]([C@@H](C)O)NC(=O)[C@H](CC(C)C)N(C)C(=O)[C@H](COC(C)(C)C)NC(=O)[C@H](Cc2ccccc2)N(C)C1=O [pd021] ([NMeβAla]L[NMeL]I[NMeF][Abu][NMeF]S(tBu)[NMeL]T[NMeA][NMeL]VD-Piperidide; lactam N-14)	0.15 10^-6 cm/sec

Any idea what its Caco2 Papp (10^-6 cm/sec) is? The compound is CC[C@@H]1NC(=O)[C@H](CC(C)C)N(C)C(=O)[C@H](CC(C)C)NC(=O)CN(C)C(=O)[C@H](C(C)C)NC(=O)[C@H](CC(C)C)N(C)C(=O)[C@H](C(C)C)NC(=O)[C@H](Cc2ccccc2)N(C)C(=O)[C@H](C)N(C)C(=O)[C@@H](C)NC(=O)C[C@@H](C)NC(=O)[C@H](C(C)C)N(C)C(=O)[C@H](CC)N(C)C(=O)[C@H](CCc2ccccc2)NC1=O [pd006] (cyclo([Abu][hPhe][NMeAbu][NMeV][d(β3hA)][dA][NMeA][NMeF]V[NMeL]V[Sar]L[NMeL]))
<0.11 10^-6 cm/sec

---

assay: Metabolic stability test: liver microsomal stability assay; type: in vitro ADME, mouse; details: male, pH 7.4; mouse liver microsomes 0.5 mg protein/mL, compound 1 µM, presence of NADPH; read-out: Mouse Hepatic Microsome CLh,int NADPH(+)
Starred links: 1 amine or outer side, 2 acyl side, 3 side chain; linkers in the order of their positions; H or OH if unused. Positions of bridges follow the written chain, without caps; N, C: chain ends. Non-standard residues stand in square brackets, D forms with d. Residues, ends and D or L forms follow the SMILES beside them. *: point of attachment. NMeF = CN[C@@H](Cc1ccccc1)C(=O)O; NMeGABA = CN(CCCC(=O)[*:2])[*:1]; NMeT = CN[C@H](C(=O)O)[C@@H](C)O; NMeL = CN[C@@H](CC(C)C)C(=O)O; NMeV = CN[C@H](C(=O)O)C(C)C; d(β3hA) = C[C@@H](N)CC(=O)O; NMeAbu = CC[C@H](NC)C(=O)O; NMeA = CN[C@@H](C)C(=O)O; Piperidide = C1CCN(*)CC1; Sar = CNCC(=O)O
measurement.kind: microsomal CLint at 1 µM (µL/min/mg)
Expressed in µL/min/mg, but write only the number.

CC[C@H](C)[C@@H]1NC(=O)[C@H](CC(C)C)N(C)C(=O)CN(C)C(=O)C[C@@H](C(=O)N2CCCCC2)NC(=O)[C@H](C)N(C)C(=O)CNC(=O)[C@H](C(C)C)N(C)C(=O)[C@H](C)N(C)C(=O)[C@H](Cc2ccccc2)N(C)C(=O)[C@H](CC(C)C)NC(=O)[C@H](Cc2ccccc2)N(C)C(=O)[C@H]([C@@H](C)O)NC(=O)[C@H](CC(C)C)N(C)C1=O [pd115] ([Sar][NMeL]I[NMeL]T[NMeF]L[NMeF][NMeA][NMeV]G[NMeA]D-Piperidide; lactam N-13)	24.9

# evaluate next
Endpoint output: microsomal CLint at 1 µM of CC[C@H](C)[C@@H]1NC(=O)[C@H](C)N(C)C(=O)[C@H]([C@@H](C)O)N(C)C(=O)[C@H](CC(C)C)N(C)C(=O)[C@H](C(C)C)NC(=O)[C@H](Cc2ccccc2)N(C)C(=O)[C@H](Cc2ccccc2)N(C)C(=O)[C@H](C)NC(=O)[C@H](CC)N(C)C(=O)[C@H]([C@@H](C)CC)NC(=O)CCCN(C)C(=O)C[C@@H](C)NC(=O)[C@H](C(C)C)N(C)C1=O [pd132] (cyclo(A[NMeF][NMeF]V[NMeL][NMeT][NMeA]I[NMeV][d(β3hA)][NMeGABA]I[NMeAbu])) . Value?
16.2
